B1: VH:VL chains; a variant is named by its letters at X, in order (parent)
chain 1: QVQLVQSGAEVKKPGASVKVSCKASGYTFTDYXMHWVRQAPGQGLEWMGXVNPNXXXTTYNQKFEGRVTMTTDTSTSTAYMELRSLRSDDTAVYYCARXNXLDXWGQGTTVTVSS
chain 2: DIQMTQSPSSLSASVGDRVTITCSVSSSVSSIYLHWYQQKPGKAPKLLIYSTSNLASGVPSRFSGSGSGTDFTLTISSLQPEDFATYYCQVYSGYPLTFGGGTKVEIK

Variants of: B1
Assay: yeast display scFab, FACS + sequencing
Settings: with MET
The list shows a part of the results. No count for the full screen is at hand.
measured-property: antigen binding call

mutant_code=SKGKGAGF measured_property="antigen binding call" result=binds
mutant_code=FKGEGDAA measured_property="antigen binding call" result="no binding"
mutant_code=YRTGAAAD measured_property="antigen binding call" result=binds
mutant_code=FRGEAVVY measured_property="antigen binding call" result="no binding"

Would you mind listing antigen binding call for each of the following variants?
1. DETGGSSD
2. VRAGADWY
3. VKRGSSAA
4. DRAGDDVV
5. DRGGDDVY
6. DTGTGAGD
7. YRAKGAVV
8. DTAEDFGV

1. no binding
2. no binding
3. binds
4. no binding
5. no binding
6. no binding
7. binds
8. no binding

Take each entry in turn and give its antigen binding call.
1. YRGAGAVY
2. FRGRGALS
3. DREEGSSY
4. DGARGALF
5. SEGTGAGV
6. DRGGDDWY
7. YRGRGFSD

1: binds; 2: binds; 3: no binding; 4: no binding; 5: no binding; 6: no binding; 7: binds

Provide antigen binding call for all items below, preserving their order.
1. FRTRGVGA
2. YKGRGALF
3. STEEGDWV
4. DGERDYSD
5. SKGRSDVF
6. YKGKGAGF
7. SKGKGAVA

["no binding", "binds", "no binding", "no binding", "no binding", "binds", "no binding"]

State the recorded antigen binding call for every item in the following list.
1. DTREGDVY
2. YRRAADSD
3. VAGGDYLV
4. YKTRSAVA
5. VRRASSVA
6. YRTGASSD

no binding
no binding
no binding
binds
binds
binds
